These data points were gathered from ChEMBL document CHEMBL1122241.

- Procedure Summary: pKa value is evaluated
- Type: physicochemical
Readout Label: pKa

>>> df
                                   molecule  measured_result
0  C=CCC1(C(C)C#CCC)C(=O)NC(=O)N(C)C1=O (stereo not drawn) [METHOHEXITAL]             4.74
1       CCC1(CC)C(=O)NC(=O)NC1=O [BARBITAL]             7.75
2  [H]/N=C(/N)NS(=O)(=O)c1ccc(N)cc1 [SULFAGUANIDINE]               12

----------
- Procedure Summary: Negative log of Langmuir's alpha constant (-log alpha), which is inversely proportional to the effective binding constant (protein binding)
- Format: ADME
Outcome: T for -Log alpha of at least -2; F for anything lower.

                                   compound  assigned_label
0       Cc1cc(C)nc(NS(=O)(=O)c2ccc(N)cc2)n1               F
1          Cc1ccnc(NS(=O)(=O)c2ccc(N)cc2)n1               F
2          Cc1noc(NS(=O)(=O)c2ccc(N)cc2)c1C               T
3             Nc1ccc(S(=O)(=O)Nc2ncccn2)cc1               F
4  CC(=O)NS(=O)(=O)c1ccc(N)cc1 [SULFACETAMIDE]               F
